// data source = patent US11608374

- assayed-system: T1, mouse sclerostin (mouse)
- T1 chain: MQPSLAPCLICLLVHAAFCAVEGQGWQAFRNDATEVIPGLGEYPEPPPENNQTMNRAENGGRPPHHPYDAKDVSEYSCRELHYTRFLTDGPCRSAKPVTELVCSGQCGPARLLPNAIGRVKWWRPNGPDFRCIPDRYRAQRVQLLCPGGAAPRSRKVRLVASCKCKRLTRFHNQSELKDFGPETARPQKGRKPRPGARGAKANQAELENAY
- assay: SPR, pH 7.4, 37C
reported-property: log10 Kd (log10 of the value in pM)
Short version: log10 scale, Kd, pM.

mabA (antibody, V domains shown) VH: EVQLVQSGAEVKKPGASVKVSCKASGYTFTDYNMHWVRQAPGQGLEWMGEINPNSGGAGYNQKFKGRVTMTTDTSTSTAYMELRSLRSDDTAVYYCARLGYDDIYDDWYFDVWGQGTTVTVSS VL: DIQMTQSPSSLSASVGDRVTITCRASQDISNYLNWYQQKPGKAPKLLIYYTSRLLSGVPSRFSGSGSGTDFTLTISSLQPEDFATYYCQQGDTLPYTFGGGTKVEIK ... -2.52
mabB_pH1 (antibody, V domains shown) VH: QVQLVQSGAEVKKPGASVKVSCKVSGFPIKHHFQHWVRQAPGKGLEWMGWSDPEIGDTEYASKFQGRVTMTEDTSTDTAYMELSSLRSEDTAVYYCATGDTTYKFDFWGQGTTVTVSS VL: DIQMTQSPSSLSASVGDRVTITCKASQDVHTAVAWYQQKPGKAPKLLIYWASTRWTGVPSRFSGSGSGTDFTLTISSLQPEDFATYYCQQYHDYPWTFGGGTKVEIK ... 2.14
mabB_pH4 (antibody, V domains shown) VH: QVQLVQSGAEVKKPGASVKVSCKVSGFPIKHHFQHWVRQAPGKGLEWMGWSDPEIGDTEYASKFQGRVTMTEDTSTDTAYMELSSLRSEDTAVYYCATGDTTYKFDFWGQGTTVTVSS VL: DIQMTQSPSSLSASVGDRVTITCKASQDVHTAVAWYQQKPGKAPKLLIYWASTRWTGVPSRFSGSGSGTDFTLTISSLQPEDFATYYCQQYSDYHWTFGGGTKVEIK ... 2.89
mabA_NpH2 (antibody, V domains shown) VH: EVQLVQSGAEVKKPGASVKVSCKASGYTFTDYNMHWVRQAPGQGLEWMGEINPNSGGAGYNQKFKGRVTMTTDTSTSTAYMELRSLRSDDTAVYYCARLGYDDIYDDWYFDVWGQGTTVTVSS VL: DIQMTQSPSSLSASVGDRVTITCRASQDISNYLNWYQQKPGKAPKLLIYHTSRLLSGVPSRFSGSGSGTDFTLTISSLQPEDFATYYCQQGDTLPYTFGGGTKVEIK ... 0.75
mabA_pH2 (antibody, V domains shown) VH: EVQLVQSGAEVKKPGASVKVSCKASGYTFTDYNMHWVRQAPGQGLEWMGEINPNSGHAGYNQKFKGRVTMTTDTSTSTAYMELRSLRSDDTAVYYCARLHYDHIYDDWYFDVWGQGTTVTVSS VL: DIQMTQSPSSLSASVGDRVTITCRASHDISNYLNWYQQKPGKAPKLLIYYTSRLLSGVPSRFSGSGSGTDFTLTISSLQPEDFATYYCQQGDTLPYTFGGGTKVEIK ... 1.91

Reported log10 Kd ( mabB_pH5 (antibody, V domains shown) VH: QVQLVQSGAEVKKPGASVKVSCKVSGFPIKHHFQHWVRQAPGKGLEWMGWSDPEIGDTEYASKFQGRVTMTEDTSTDTAYMELSSLRSEDTAVYYCATGHTTYKFDFWGQGTTVTVSS VL: DIQMTQSPSSLSASVGDRVTITCKASQDVHTAVAWYQQKPGKAPKLLIYWASTRWTGVPSRFSGSGSGTDFTLTISSLQPEDFATYYCQQYSDYHWTFGGGTKVEIK ) = 2.77

Record summary for mabB (antibody, V domains shown) VH: QVQLVQSGAEVKKPGASVKVSCKVSGFPIKDTFQHWVRQAPGKGLEWMGWSDPEIGDTEYASKFQGRVTMTEDTSTDTAYMELSSLRSEDTAVYYCATGDTTYKFDFWGQGTTVTVSS VL: DIQMTQSPSSLSASVGDRVTITCKASQDVHTAVAWYQQKPGKAPKLLIYWASTRWTGVPSRFSGSGSGTDFTLTISSLQPEDFATYYCQQYSDYPWTFGGGTKVEIK : reported log10 Kd = 1.15
